Data provenance: patent US20060069084A1

- testedTarget: JAK3 (Homo sapiens, UniProt P52333)
- Construct: The kinase domain of humanJAK3 was amplified from U937mRNA; His tag (from pFastBac HTb vector; nickel chelate purification) (N); made in house; host or cells: baculovirus; virus made in Sf9, large-scale expression in High Five insect cells
- Sequence (P52333 822-1111 limits assumed): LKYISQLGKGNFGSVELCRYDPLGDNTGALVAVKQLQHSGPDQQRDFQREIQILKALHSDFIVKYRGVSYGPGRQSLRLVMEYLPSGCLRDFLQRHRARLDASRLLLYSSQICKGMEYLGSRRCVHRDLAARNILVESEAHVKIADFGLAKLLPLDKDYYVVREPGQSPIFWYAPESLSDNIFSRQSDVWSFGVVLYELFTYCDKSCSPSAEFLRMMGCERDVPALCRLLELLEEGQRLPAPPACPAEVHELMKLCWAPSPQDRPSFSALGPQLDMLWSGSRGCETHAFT
- testSummary: JAK3 kinase domain capture-based ELISA kinase assay
- Type: biochemical
- conditions: Table 6; inhibit 50% of activity at 50 μM
pIC50: −log10 of the molar value.
assayEndpoint: pIC50

Quick one: give measured pIC50 for CC(=O)Nc1ccc(Nc2nc(-c3ccccc3F)cn3ccnc23)cc1 > 4.30

Quick one: give measured pIC50 for O=C(O)c1ccc(-c2cn3ccnc3c(N3CCN(c4ccncc4)CC3)n2)cc1 < 4.30

Quick one: give measured pIC50 for CC(=O)Nc1ccc(Nc2nc(-c3ccc4c(c3)OCO4)cn3ccnc23)cc1 > 4.30

Quick one: give measured pIC50 for COc1ccccc1-c1cn2ccnc2c(Nc2ccc(CCO)cc2)n1 < 4.30

Quick one: give measured pIC50 for CCN(CCO)c1ccc(Nc2nc(-c3ccc(F)c(Cl)c3)cn3ccnc23)cc1 < 4.30

Quick one: give measured pIC50 for O=C(O)c1cccc(-c2cn3ccnc3c(Nc3ccc(N4CCOCC4)cc3)n2)c1 > 4.30

Quick one: give measured pIC50 for COc1ccccc1-c1cn2ccnc2c(Nc2ccc(N3CCOCC3)cc2)n1 < 4.30

Quick one: give measured pIC50 for c1cncc(CCNc2nc(-c3ccco3)cn3ccnc23)c1 > 4.30

Quick one: give measured pIC50 for COc1ccc(Nc2nc(-c3ccccc3OC)cn3ccnc23)cn1 < 4.30

Quick one: give measured pIC50 for CC(=O)c1ccc(-c2cn3ccnc3c(Nc3ccccc3)n2)s1 > 4.30

Quick one: give measured pIC50 for Clc1ccccc1-c1cn2ccnc2c(Nc2ccc3[nH]ccc3c2)n1 < 4.30

Quick one: give measured pIC50 for CCNc1nc(-c2ccc(O)c(OC)c2)cn2ccnc12 > 4.30

Quick one: give measured pIC50 for CCCC/C=C/c1cn2ccnc2c(NC2CCC(O)CC2)n1 (stereo not drawn) > 4.30

Quick one: give measured pIC50 for CCN(CCO)c1ccc(Nc2nc(-c3ccccc3)cn3ccnc23)cc1 > 4.30

Quick one: give measured pIC50 for CCN(CCO)c1ccc(Nc2nc(Br)cn3ccnc23)cc1 [drawing 101] < 4.30

Quick one: give measured pIC50 for Brc1cn2ccnc2c(Nc2ccccc2)n1 < 4.30

Quick one: give measured pIC50 for Cc1ccc(S(=O)(=O)Nc2ccc(Nc3nc(-c4cccc(N)c4)cn4ccnc34)cc2)cc1 < 4.30

Quick one: give measured pIC50 for COc1cc(-c2cn3ccnc3c(NC3CC3)n2)ccc1O > 4.30

Quick one: give measured pIC50 for Oc1ccc(-c2cn3ccnc3c(Nc3ccccc3)n2)cc1 < 4.30

Quick one: give measured pIC50 for c1ccc(-c2cn3ccnc3c(NCc3ccncc3)n2)cc1 < 4.30

Quick one: give measured pIC50 for CN(C)CCNC(=O)c1ccc(-c2cn3ccnc3c(Nc3ccc(C(=O)O)cc3)n2)cc1 > 4.30

Quick one: give measured pIC50 for c1cc(-c2cn3ccnc3c(Nc3ccc(N4CCOCC4)cc3)n2)ccn1 [drawing 120] < 4.30

Quick one: give measured pIC50 for c1coc(-c2cn3ccnc3c(Nc3ccc4[nH]ccc4c3)n2)c1 < 4.30

Quick one: give measured pIC50 for CCCC/C=C/c1cn2ccnc2c(NCc2ccncc2)n1 > 4.30

Quick one: give measured pIC50 for c1cncc(-c2cn3ccnc3c(NCCc3ccncc3)n2)c1 > 4.30

Quick one: give measured pIC50 for CN(C)C(=O)COc1cccc(Nc2nc(-c3ccccc3Cl)cn3ccnc23)c1 > 4.30

Quick one: give measured pIC50 for CCN(CCO)c1ccc(Nc2nc(-c3cc(C(F)(F)F)cc(C(F)(F)F)c3)cn3ccnc23)cc1 < 4.30

Quick one: give measured pIC50 for NCc1cccc(-c2cn3ccnc3c(Nc3ccccc3)n2)c1 < 4.30

Quick one: give measured pIC50 for Brc1cn2ccnc2c(Nc2ccc(N3CCOCC3)cc2)n1 [drawing 100] < 4.30

Quick one: give measured pIC50 for CCN(CCO)c1ccc(Nc2nc(-c3cccc4ccccc34)cn3ccnc23)cc1 [drawing 94] < 4.30

Quick one: give measured pIC50 for FC(F)(F)Oc1cccc(-c2cn3ccnc3c(Nc3ccccc3)n2)c1 < 4.30

Quick one: give measured pIC50 for CCNc1nc(-c2cccc(O)c2)cn2ccnc12 > 4.30

Quick one: give measured pIC50 for O=C(NCCO)c1ccc(-c2cn3ccnc3c(Nc3ccccc3)n2)cc1 < 4.30

Quick one: give measured pIC50 for c1cncc(-c2cn3ccnc3c(Nc3ccc(N4CCOCC4)cc3)n2)c1 [drawing 131] < 4.30

Quick one: give measured pIC50 for COCCNc1nc(-c2ccccc2)cn2ccnc12 [drawing 93] < 4.30

Quick one: give measured pIC50 for CCN(CCO)c1ccc(Nc2nc(-c3c(OC)cccc3OC)cn3ccnc23)cc1 < 4.30

Quick one: give measured pIC50 for CCN(CCO)c1ccc(Nc2nc(-c3ccccc3CO)cn3ccnc23)cc1 [drawing 96] < 4.30

Quick one: give measured pIC50 for c1cn2cc(-c3ccc4c(c3)OCO4)nc(Nc3ccc(N4CCOCC4)cc3)c2n1 < 4.30

Quick one: give measured pIC50 for c1ccc(Nc2nc(-c3cccnc3)cn3ccnc23)cc1 > 4.30

Quick one: give measured pIC50 for CN1CCCN(c2nc(-c3cccc4ccccc34)cn3ccnc23)CC1 < 4.30

Quick one: give measured pIC50 for CCCNc1nc(-c2cccc(N)c2)cn2ccnc12 < 4.30

Quick one: give measured pIC50 for CN(C)C(=O)COc1cccc(Nc2nc(-c3cccc(N)c3)cn3ccnc23)c1 > 4.30

Quick one: give measured pIC50 for CC(=O)Nc1ccc(Nc2nc(-c3ccc4ccccc4c3)cn3ccnc23)cc1 < 4.30

Quick one: give measured pIC50 for COc1ccc(Nc2nc(-c3ccccc3Cl)cn3ccnc23)cn1 < 4.30

Quick one: give measured pIC50 for c1ccc(Nc2nc(-c3ccc4c(c3)OCO4)cn3ccnc23)cc1 < 4.30

* * *

- System: TSU
- testSummary: TSU cellular growth assay (MTT)
- Assay type: cell-based
- conditions: Table 4, inhibit 50% of cellular growth, 40 hr incubation
assayEndpoint: IC50 (µM)
Quick reminder: number only, in µM, skip the unit.

Look up TSU data: IC50 of COc1cncc(-c2cncc(N[C@@H](C)c3ccccc3)n2)c1 [drawing 54] , then report it. 20

Look up TSU data: IC50 of CC(=O)Nc1cccc(-c2cncc(NCc3cccc(Cl)c3)n2)c1 [drawing 60] , then report it. 5

Look up TSU data: IC50 of COc1cncc(-c2cncc(NCc3ccc(F)cc3)n2)c1 [drawing 53] , then report it. 50

Look up TSU data: IC50 of COc1cc(-c2cncc(N[C@@H](C)c3ccccc3)n2)cc(OC)c1OC [drawing 55] , then report it. 10

Look up TSU data: IC50 of COc1cc(-c2cncc(N[C@@H](C)c3ccccc3)n2)cc(OC)c1OC [drawing 57] , then report it. 10

Look up TSU data: IC50 of C[C@H](Nc1cncc(-c2cccc(CO)c2)n1)c1ccccc1 [drawing 58] , then report it. 15

Look up TSU data: IC50 of COc1cc(-c2cncc(NCc3ccccc3)n2)cc(OC)c1OC [drawing 56] , then report it. 10

Look up TSU data: IC50 of COc1cncc(-c2cncc(NCC(C)(C)CO)n2)c1 [drawing 59] , then report it. 40

* * *

I'd be grateful if you could share measured pIC50 for these entries.
- testedTarget: JAK2 (Homo sapiens)
- Construct: The kinase domain of humanJAK2 was amplified from U937mRNA; His tag (from pFastBac HTc vector; nickel chelate purification) (N); made in house; host or cells: baculovirus; virus made in Sf9, large-scale expression in High Five insect cells
- Sequence (O60674 849-1124 limits assumed): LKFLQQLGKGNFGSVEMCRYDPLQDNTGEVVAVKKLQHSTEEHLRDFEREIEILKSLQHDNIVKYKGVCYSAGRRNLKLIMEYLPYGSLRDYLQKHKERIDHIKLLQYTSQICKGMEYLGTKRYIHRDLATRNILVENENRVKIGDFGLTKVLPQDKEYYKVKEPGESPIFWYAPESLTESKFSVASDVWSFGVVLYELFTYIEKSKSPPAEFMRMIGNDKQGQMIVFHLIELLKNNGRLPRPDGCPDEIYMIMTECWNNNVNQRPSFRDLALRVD
- testSummary: JAK2 kinase domain capture-based ELISA kinase assay
- Assay type: biochemical
- conditions: Table 6; inhibit 50% of activity at 50 μM
pIC50: −log10 of the molar value.

Quick one: give measured pIC50 for Oc1cccc(-c2cn3ccnc3c(NC3CC3)n2)c1 > 4.30

Quick one: give measured pIC50 for CN1CCN(c2nc(-c3cccnc3)cn3ccnc23)CC1 < 4.30

Quick one: give measured pIC50 for Clc1ccccc1-c1cn2ccnc2c(NCc2ccccn2)n1 > 4.30

Quick one: give measured pIC50 for CCCC/C=C/c1cn2ccnc2c(Nc2ccc(N(CC)CCO)cc2)n1 > 4.30

Quick one: give measured pIC50 for c1coc(-c2cn3ccnc3c(Nc3ccc4[nH]ccc4c3)n2)c1 > 4.30

Quick one: give measured pIC50 for c1cncc(-c2cn3ccnc3c(Nc3ccc(N4CCOCC4)cc3)n2)c1 [drawing 131] > 4.30

Quick one: give measured pIC50 for COc1ccc(Nc2nc(-c3ccccc3Cl)cn3ccnc23)cn1 > 4.30

Quick one: give measured pIC50 for CCN(CCO)c1ccc(Nc2nc(-c3ccc(F)c(Cl)c3)cn3ccnc23)cc1 > 4.30

Quick one: give measured pIC50 for O=C(O)c1ccc(-c2cn3ccnc3c(Nc3ccc4cn[nH]c4c3)n2)cc1 > 4.30

Quick one: give measured pIC50 for O=C(O)c1cccc(-c2cn3ccnc3c(Nc3ccc4cn[nH]c4c3)n2)c1 > 4.30

Quick one: give measured pIC50 for c1cn2cc(-c3ccc4c(c3)OCO4)nc(NC3CC3)c2n1 < 4.30
